The reported numbers originate from BindingDB's records for doi:10.1021/acs.jmedchem.9b00966.

# Experiment Description: Reversal of P-gp mediated multidrug resistance in human DU145-TxR cells overexpressing P-gp assessed as potentiation of paclitaxel-induced cytotoxicity by measuring paclitaxel IC50 at 5 uM after 48 hrs by MTT assay (Rvb = 2120 nM)
Item-by-item account of IC50
Test Readout: IC50 (nM)

| Structure | Endpoint Result |
| --- | --- |
| Cc1cc(C)c(-c2cc(NC(=O)CSCC(=O)NCc3ccc(F)cc3)n(-c3ccccc3)n2)cc1C | 379 |
| Cc1cc(C)c(-c2cc(NC(=O)CSCC(=O)Nc3ccc4ncsc4c3)n(-c3ccccc3)n2)cc1C | 5.7 |
| Cc1cc(C)c(-c2cc(NC(=O)CSCC(=O)NC34CC5CC(CC(C5)C3)C4)n(-c3ccccc3)n2)cc1C | 109 |

----------
# Experiment Description: Reversal of P-gp mediated multidrug resistance in human DU145-TxR cells overexpressing P-gp assessed as potentiation of paclitaxel-induced cytotoxicity by measuring paclitaxel IC50 at 7 uM after 48 hrs by MTT assay (Rvb = 2120 nM)
Test Readout: IC50 (nM)

| Structure | Unit String | Endpoint Result |
| --- | --- | --- |
| Cc1cc(C)c(-c2cc(NC(=O)CSCC(=O)NCc3ccc(F)cc3)n(-c3ccccc3)n2)cc1C | nM | 192 |
| Cc1cc(C)c(-c2cc(NC(=O)CSCC(=O)c3ccc4c(c3)Cc3ccccc3-4)n(-c3ccccc3)n2)cc1C | nM | 62 |
| COc1cc(NC(=O)CSCC(=O)Nc2cc(-c3cc(C)c(C)cc3C)nn2-c2ccccc2)cc(OC)c1OC | nM | 0.64 |

----------
# Experiment Description: Reversal of P-gp mediated multidrug resistance in human DU145-TxR cells overexpressing P-gp assessed as potentiation of paclitaxel-induced cytotoxicity by measuring paclitaxel IC50 at 3 uM after 48 hrs by MTT assay (Rvb = 2120 nM)
Test Readout: IC50

| Structure | Test Readout | Endpoint Result |
| --- | --- | --- |
| Cc1cc(C)c(-c2cc(NC(=O)CSCC(=O)Nc3ccc4ccccc4c3)n(-c3ccccc3)n2)cc1C | IC50 | 153 nM |
| Cc1cc(C)c(-c2cc(NC(=O)CSCC(=O)c3ccc4c(c3)Cc3ccccc3-4)n(-c3ccccc3)n2)cc1C | IC50 | 266 nM |
| Cc1cc(C)c(-c2cc(NC(=O)CSCC(=O)Nc3ccc4ncsc4c3)n(-c3ccccc3)n2)cc1C | IC50 | 172 nM |

----------
# Experiment Description: Reversal of P-gp mediated multidrug resistance in human DU145-TxR cells overexpressing P-gp assessed as potentiation of paclitaxel-induced cytotoxicity by measuring paclitaxel IC50 at 10 uM after 48 hrs by MTT assay (Rvb = 2120 nM)
Test Readout: IC50 (nM)

| Structure | Endpoint Result |
| --- | --- |
| Cc1cc(C)c(-c2cc(NC(=O)CSCC(=O)Nc3ccc4ccccc4c3)n(-c3ccccc3)n2)cc1C | 2 |
| Cc1cc(C)c(-c2cc(NC(=O)CSCC(=O)NC34CC5CC(CC(C5)C3)C4)n(-c3ccccc3)n2)cc1C | 13 |
| Cc1cc(C)c(-c2cc(NC(=O)CSc3cccc(NC(=O)c4cncc(Br)c4)c3)n(-c3ccccc3)n2)cc1C | 6 |
| Cc1cc(C)c(-c2cc(NC(=O)CSCC(=O)N3c4ccccc4CCc4ccccc43)n(-c3ccccc3)n2)cc1C | 4 |
| Cc1cc(C)c(-c2cc(NC(=O)CSCC(=O)Nc3ccc4ncsc4c3)n(-c3ccccc3)n2)cc1C | 0.78 |
| Cc1cc(C)c(-c2cc(NC(=O)CSc3n[nH]c(C4CC4)n3)n(-c3ccccc3)n2)cc1C | 21 |
| COc1cc(NC(=O)CSCC(=O)Nc2cc(-c3cc(C)c(C)cc3C)nn2-c2ccccc2)cc(OC)c1OC | 0.07 |
| Cc1cc(C)c(-c2cc(NC(=O)CSCC(=O)NCc3ccc(F)cc3)n(-c3ccccc3)n2)cc1C | 131 |

----------
# Experiment Description: Reversal of P-gp mediated multidrug resistance in human DU145-TxR cells overexpressing P-gp assessed as potentiation of paclitaxel-induced cytotoxicity by measuring paclitaxel IC50 at 7 uM after 48 hrs by MTT assay (Rvb = 2120 nM)
pIC50: −log10 of the molar value.
We use 8 as the dividing line for pIC50: on or above the line is t, below is f.

| Structure | Category Label |
| --- | --- |
| Cc1cc(C)c(-c2cc(NC(=O)CSc3n[nH]c(C4CC4)n3)n(-c3ccccc3)n2)cc1C | f |
| Cc1cc(C)c(-c2cc(NC(=O)CSCC(=O)NC34CC5CC(CC(C5)C3)C4)n(-c3ccccc3)n2)cc1C | f |
| Cc1cc(C)c(-c2cc(NC(=O)CSCC(=O)Nc3ccc4ncsc4c3)n(-c3ccccc3)n2)cc1C | t |

----------
# Experiment Description: Reversal of P-gp mediated multidrug resistance in human DU145-TxR cells overexpressing P-gp assessed as potentiation of paclitaxel-induced cytotoxicity by measuring paclitaxel IC50 at 5 uM after 48 hrs by MTT assay (Rvb = 2120 nM)
pIC50: −log10 of the molar value.

| Structure | pIC50 |
| --- | --- |
| COc1cc(NC(=O)CSCC(=O)Nc2cc(-c3cc(C)c(C)cc3C)nn2-c2ccccc2)cc(OC)c1OC | 8.72 |
| Cc1cc(C)c(-c2cc(NC(=O)CSc3n[nH]c(C4CC4)n3)n(-c3ccccc3)n2)cc1C | 6.71 |
| Cc1cc(C)c(-c2cc(NC(=O)CSCC(=O)c3ccc4c(c3)Cc3ccccc3-4)n(-c3ccccc3)n2)cc1C | 6.81 |
| Cc1cc(C)c(-c2cc(NC(=O)CSc3nnc4c(n3)[nH]c3ccccc34)n(-c3ccccc3)n2)cc1C | 7.68 |
| Cc1cc(C)c(-c2cc(NC(=O)CSCC(=O)NC(c3ccccc3)c3ccccc3)n(-c3ccccc3)n2)cc1C | 7.25 |
| Cc1cc(C)c(-c2cc(NC(=O)CSc3cccc(NC(=O)c4cncc(Br)c4)c3)n(-c3ccccc3)n2)cc1C | 7.70 |
| Cc1cc(C)c(-c2cc(NC(=O)CSCC(=O)Nc3ccc4ccccc4c3)n(-c3ccccc3)n2)cc1C | 7.34 |
| Cc1cc(C)c(-c2cc(NC(=O)CSCC(=O)N3c4ccccc4CCc4ccccc43)n(-c3ccccc3)n2)cc1C | 7.28 |

----------
Item-by-item account of pIC50
# Experiment Description: Reversal of P-gp mediated multidrug resistance in human DU145-TxR cells overexpressing P-gp assessed as potentiation of paclitaxel-induced cytotoxicity by measuring paclitaxel IC50 at 10 uM after 48 hrs by MTT assay (Rvb = 2120 nM)
pIC50: −log10 of the molar value.

| Structure | pIC50 |
| --- | --- |
| Cc1cc(C)c(-c2cc(NC(=O)CSc3nnc4c(n3)[nH]c3ccccc34)n(-c3ccccc3)n2)cc1C | 7.77 |
| Cc1cc(C)c(-c2cc(NC(=O)CSCC(=O)c3ccc4c(c3)Cc3ccccc3-4)n(-c3ccccc3)n2)cc1C | 7.24 |
| Cc1cc(C)c(-c2cc(NC(=O)CSCC(=O)NC(c3ccccc3)c3ccccc3)n(-c3ccccc3)n2)cc1C | 7.96 |

----------
Item-by-item account of pIC50
# Experiment Description: Reversal of P-gp mediated multidrug resistance in human DU145-TxR cells overexpressing P-gp assessed as potentiation of paclitaxel-induced cytotoxicity by measuring paclitaxel IC50 at 3 uM after 48 hrs by MTT assay (Rvb = 2120 nM)
pIC50: −log10 of the molar value.
Test Readout: pIC50

| Structure | Test Readout | Endpoint Result |
| --- | --- | --- |
| Cc1cc(C)c(-c2cc(NC(=O)CSc3n[nH]c(C4CC4)n3)n(-c3ccccc3)n2)cc1C | pIC50 | 6.20 |
| Cc1cc(C)c(-c2cc(NC(=O)CSCC(=O)NC34CC5CC(CC(C5)C3)C4)n(-c3ccccc3)n2)cc1C | pIC50 | 6.64 |
| Cc1cc(C)c(-c2cc(NC(=O)CSCC(=O)NC(c3ccccc3)c3ccccc3)n(-c3ccccc3)n2)cc1C | pIC50 | 6.80 |
| Cc1cc(C)c(-c2cc(NC(=O)CSCC(=O)N3c4ccccc4CCc4ccccc43)n(-c3ccccc3)n2)cc1C | pIC50 | 6.79 |
| Cc1cc(C)c(-c2cc(NC(=O)CSc3cccc(NC(=O)c4cncc(Br)c4)c3)n(-c3ccccc3)n2)cc1C | pIC50 | 7.25 |
| Cc1cc(C)c(-c2cc(NC(=O)CSc3nnc4c(n3)[nH]c3ccccc34)n(-c3ccccc3)n2)cc1C | pIC50 | 6.37 |
| COc1cc(NC(=O)CSCC(=O)Nc2cc(-c3cc(C)c(C)cc3C)nn2-c2ccccc2)cc(OC)c1OC | pIC50 | 6.73 |
| Cc1cc(C)c(-c2cc(NC(=O)CSCC(=O)NCc3ccc(F)cc3)n(-c3ccccc3)n2)cc1C | pIC50 | 6.34 |
